All figures here come from paper PMC9352680.

Reported Kd values for a set of binders
# targetSystem: T1, PUF4 RNA-binding domain (Saccharomyces cerevisiae, UniProt P25339 537-888)
# T1 sequence: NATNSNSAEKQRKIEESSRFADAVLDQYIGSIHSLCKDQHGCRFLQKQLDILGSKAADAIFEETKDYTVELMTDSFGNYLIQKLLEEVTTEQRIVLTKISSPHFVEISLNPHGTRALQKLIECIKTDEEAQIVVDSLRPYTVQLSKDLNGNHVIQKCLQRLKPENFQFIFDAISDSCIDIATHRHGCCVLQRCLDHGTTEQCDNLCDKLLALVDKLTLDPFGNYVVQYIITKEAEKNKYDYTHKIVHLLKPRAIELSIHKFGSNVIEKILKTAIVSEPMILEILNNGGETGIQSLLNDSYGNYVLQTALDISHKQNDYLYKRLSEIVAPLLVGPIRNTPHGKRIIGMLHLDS
# measurementNotes: Mg; RNA-MaP; 20 mM Na-HEPES pH 7.4, 30 mM KOAc, 0.75 mM MgCl2, 0.1% Tween-20, 5% glycerol, 0.1 mg/mL BSA, 2 mM DTT; 25 C; 0.0125-409.6 nM protein
# experimentalConditions: tags: N-His6-TEV cleaved; C-SNAP kept, Cy3B-labelled; label: tethered on chip by stalled RNA polymerase
Number only, in nM; omit the unit.

Reference set, count: 5
UCUCUUUGUGUAUUUUCUCUU (ssRNA) [Ib_S1_P4E.1_K4.1_C4.1_H4.1_[A4G]_A4.1_F4.1_[A9T]_T4.1]	33.2
UCUCUUAUACACUAUUACAUCUCUU (ssRNA) [Id_ii_S1_P4E.4_K4.3_C4.2_[C-2A]_H4.3_A4.1_F4.1_T4.2_[G10C]_[T11A]]	29.6
Ic_S2_P3E.1_K3.1_C3.1_H3.1_A3.1_[T5A]_[A6T]_F3.1_[T7G]_[A8T]_T3.1 (ssRNA) RNA: UUUGAUUAAUAUGAUAUCGUUCUUUCUUGUAAUGUUUCUUUCUCGAUAUCAUAUUAAUCUUU	174
UCUCUUUGUAGUACUCUCUU (ssRNA) [Ic_S1_P3E.1_K3.1_C3.1_H3.1_A3.1_[T5G]_[A6T]_F3.1_[T7A]_[A8C]_T3.1]	1210
Ic_S4_P4E.1_K4.1_C4.1_H4.1_A4.1_[T5A]_[T7A]_F4.1_[A9T]_T4.1 (ssRNA) RNA: UUUGACAACUGAUCGUUCUUUCUUGUAAAAUUUUCUUUCUCGAUCAGUUGUCUUU	65

Now for another entry.
input: Output Kd of Ib_S4_P4E.1_K4.1_C4.1_H4.1_[A4T]_A4.1_[T7G]_F4.1_T4.1 (ssRNA) RNA: UUUGACAACUGAUCGUUCUUUCUUGUUUAGUAUUCUUUCUCGAUCAGUUGUCUUU
output: 30.9
